Reported pKd by item:
Tested on: full length human vWF (SEQ ID NO 7)
Experiment: dot blot KD determination and extent of binding, full length human vWF;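 also: dot blot binding of aptamers to full length human vWF across a protein titration, incubated 30 minutes at room temperature in 1x DPBS with BSA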
Settings: Phase 1 modification; full length human vWF, dot blot, 8 point protein titration; read-out: KD
Oligonucleotides are written 5' to 3', each unit as a sugar letter and its base; * is a phosphorothioate linkage, no mark a phosphodiester; rarer units and linkages stand in square brackets, end groups in braces. Plain capitals give the bases only. [invdT] = inverted (3'-3') thymidine; d = 2'-deoxy (DNA); m = 2'-O-methyl
Scale note: pKd = -log10(concentration in M).

Consider the worked cases shown below.
ARC1195: ARC1172 with one residue replaced by 2'-O methyl residue (DNA dGmGdCdGdTdGdCdAdGdTdGdCdCdTdTdCdGdGdCdCdGdTdGdCdGdGdTdGdCdCdTdCdCdGdTdCdAdCdGdCdC[invdT]; aptamer); 9.00
ARC1237: ARC1172 with composite 2'-O methyl replacements in the stem regions (mGmGmCmGmUmGdCdAdGdTdGdCdCdTdTdCdGdGdCdCdGdTdGdCdGdGdTdGdCdCdTdCdCdGdTmCmAmCmGmCmC[invdT]; aptamer); 7.39
ARC1227: ARC1172 with one residue replaced by 2'-O methyl residue (dGdGdCdGdTdGdCdAdGdTdGdCdCdTdTdCdGdGdCdCdGdTdGdCdGdGdTdGdCdCdTdCdCmGdTdCdAdCdGdCdC[invdT]; aptamer); 8.52

API: the following record is the query input.
Need pKd of ARC1215: ARC1172 with one residue replaced by 2'-O methyl residue (DNA dGdGdCdGdTdGdCdAdGdTdGdCdCdTdTdCdGdGdCdCdGmUdGdCdGdGdTdGdCdCdTdCdCdGdTdCdAdCdGdCdC[invdT]; aptamer) , thanks.
8.52

Where these numbers come from: patent US7998940B2
